Field: viability, T/C. Provide a value for each of the compounds that follow.
Test system: KRAS PDC multicell spheroid viability;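 further: drug exposure lasted seven days; 100% = DMSO vehicle wells and lower means fewer viable cells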
Assay Procedure: Anticancer human tumor 521955-158-R6-J3-PDC patient-derived pancreatic carcinoma cell line growth inhibition [KRAS2]
Study Conditions: second compound 1 µM; first compound 0.0316 µM; hits give low values
Write the answer as a number in %, unit excluded.

Query: Return reported viability, T/C. Input compound: COC(=O)c1ccc2c(C(=Nc3ccc(N(C)C(=O)CN4CCN(C)CC4)cc3)c3ccccc3)c(O)[nH]c2c1 + C=CC(=O)N1CCN(c2nc(OCC3CCCN3C)nc3c2CCN(c2cccc4cccc(C)c24)C3)CC1CC#N
Reply: 74.3

Query: Return reported viability, T/C. Input compound: CCNC(=O)CC1N=C(c2ccc(Cl)cc2)c2cc(OC)ccc2-n2c(C)nnc21 (stereo unspecified) + COc1cc2nc(C)nc(NC(C)c3cc(N)cc(C(F)(F)F)c3)c2cc1OC1CCOC1
Reply: 83.7

Query: Return reported viability, T/C. Input compound: CC1OCC2(CCN(c3cnc(Sc4ccnc(N)c4Cl)c(N)n3)CC2)C1N (stereo unspecified) + COc1cc2nc(C)nc(NC(C)c3cc(N)cc(C(F)(F)F)c3)c2cc1OC1CCOC1
Reply: 78

Query: Return reported viability, T/C. Input compound: CC(C)NCC(C(=O)N1CCN(c2ncnc3c2C(C)CC3O)CC1)c1ccc(Cl)cc1 (stereo unspecified) + C=CC(=O)N1CCN(c2nc(OCC3CCCN3C)nc3c2CCN(c2cccc4cccc(C)c24)C3)CC1CC#N
Reply: 63.3

Query: Return reported viability, T/C. Input compound: CCN1CCN(Cc2ccc(Nc3ncc(F)c(-c4cc(F)c5nc(C)n(C(C)C)c5c4)n3)nc2)CC1 + C=CC(=O)N1CCN(c2nc(=O)n(-c3c(C)ccnc3C(C)C)c3nc(-c4c(O)cccc4F)c(F)cc23)C(C)C1
Reply: 111

Query: Return reported viability, T/C. Input compound: CC(C)n1nc(-c2ccc3oc(N)nc3c2)c2c(N)ncnc21 + C=CC(=O)N1CCN(c2nc(OCC3CCCN3C)nc3c2CCN(c2cccc4cccc(C)c24)C3)CC1CC#N
Reply: 61.2

Query: Return reported viability, T/C. Input compound: CCN1CCN(Cc2ccc(Nc3ncc(F)c(-c4cc(F)c5nc(C)n(C(C)C)c5c4)n3)nc2)CC1 + COc1cc2nc(C)nc(NC(C)c3cc(N)cc(C(F)(F)F)c3)c2cc1OC1CCOC1
Reply: 86.1

Query: Return reported viability, T/C. Input compound: CN(C)C/C=C/C(=O)Nc1cc2c(Nc3ccc(F)c(Cl)c3)ncnc2cc1O[C@H]1CCOC1 + CC1OCC2(CCN(c3cnc(Sc4ccnc(N)c4Cl)c(N)n3)CC2)C1N
Reply: 69.8

Query: Return reported viability, T/C. Input compound: CC(C)NCC(C(=O)N1CCN(c2ncnc3c2C(C)CC3O)CC1)c1ccc(Cl)cc1 (stereo unspecified) + CNCc1ccccc1-c1csc(C(C)Nc2nc(C)nc3cc(OC)c(OC)cc23)c1
Reply: 77.6

Query: Return reported viability, T/C. Input compound: COc1cc(Nc2ncc3c(n2)-c2ccc(Cl)cc2C(c2c(F)cccc2OC)=NC3)ccc1C(=O)O + C=CC(=O)N1CCN(c2nc(OCC3CCCN3C)nc3c2CCN(c2cccc4cccc(C)c24)C3)CC1CC#N
Reply: 78

Query: Return reported viability, T/C. Input compound: COC(=O)c1ccc2c(C(=Nc3ccc(N(C)C(=O)CN4CCN(C)CC4)cc3)c3ccccc3)c(O)[nH]c2c1 + CNCc1ccccc1-c1csc(C(C)Nc2nc(C)nc3cc(OC)c(OC)cc23)c1
Reply: 84.1
